Sourced from paper PMC4131899

ASSAYED SYSTEM: CYP2B4 F429H (Oryctolagus cuniculus, UniProt P00178, F429H)
EXPERIMENT NOTES: biochemical
MEASUREMENT CONDITIONS: Ks, F429H; no reductase, no cyt b5; 30 °C
MEASURE NAME: Kd (µM)
Numbers only, in µM.

Asked: # get_value(readout='Kd', item= C[C@@H](Cc1ccccc1)N(C)Cc1ccccc1 [benzphetamine] )
Given back: 390

* * *

ASSAYED SYSTEM: wild type (WT) CYP2B4 (Oryctolagus cuniculus, UniProt P00178)
Sequence (P00178 1-491): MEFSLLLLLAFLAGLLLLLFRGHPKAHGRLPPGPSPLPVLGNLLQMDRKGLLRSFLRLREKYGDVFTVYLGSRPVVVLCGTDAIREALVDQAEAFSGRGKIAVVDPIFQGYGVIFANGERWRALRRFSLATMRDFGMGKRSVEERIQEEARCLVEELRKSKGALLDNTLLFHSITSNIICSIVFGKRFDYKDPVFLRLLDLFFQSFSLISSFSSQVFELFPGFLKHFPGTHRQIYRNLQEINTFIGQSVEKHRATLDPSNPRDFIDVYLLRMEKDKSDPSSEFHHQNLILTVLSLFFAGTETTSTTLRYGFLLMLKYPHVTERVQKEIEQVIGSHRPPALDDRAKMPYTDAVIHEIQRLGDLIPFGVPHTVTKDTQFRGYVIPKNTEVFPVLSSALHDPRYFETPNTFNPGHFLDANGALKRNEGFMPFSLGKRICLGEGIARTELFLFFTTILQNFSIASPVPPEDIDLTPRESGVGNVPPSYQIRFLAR
EXPERIMENT NOTES: Substrate binding
MEASUREMENT CONDITIONS: Ks, WT; no reductase, with cyt b5; 15 °C
MEASURE NAME: Kd (µM)
Numbers only, in µM.

Asked: # get_value(readout='Kd', item= C[C@@H](Cc1ccccc1)N(C)Cc1ccccc1 [benzphetamine] )
Given back: 58

* * *

ASSAYED SYSTEM: CYP2B4 F429H (Oryctolagus cuniculus, UniProt P00178, F429H)
EXPERIMENT NOTES: biochemical
MEASUREMENT CONDITIONS: Ks, F429H; with reductase, no cyt b5; 15 °C
MEASURE NAME: Kd (µM)
Give bare numbers, in µM.

Asked: # get_value(readout='Kd', item= C[C@@H](Cc1ccccc1)N(C)Cc1ccccc1 )
Given back: 830

* * *

ASSAYED SYSTEM: CYP2B4 F429H (Oryctolagus cuniculus, UniProt P00178, F429H)
EXPERIMENT NOTES: biochemical
MEASUREMENT CONDITIONS: Ks, F429H; no reductase, no cyt b5; 15 °C
MEASURE NAME: pKd
Numbers only, as −log10 of the molar value.

Asked: # get_value(readout='pKd', item= C[C@@H](Cc1ccccc1)N(C)Cc1ccccc1 )
Given back: 3.05

* * *

ASSAYED SYSTEM: wild type (WT) CYP2B4 (Oryctolagus cuniculus)
Sequence (P00178 1-491): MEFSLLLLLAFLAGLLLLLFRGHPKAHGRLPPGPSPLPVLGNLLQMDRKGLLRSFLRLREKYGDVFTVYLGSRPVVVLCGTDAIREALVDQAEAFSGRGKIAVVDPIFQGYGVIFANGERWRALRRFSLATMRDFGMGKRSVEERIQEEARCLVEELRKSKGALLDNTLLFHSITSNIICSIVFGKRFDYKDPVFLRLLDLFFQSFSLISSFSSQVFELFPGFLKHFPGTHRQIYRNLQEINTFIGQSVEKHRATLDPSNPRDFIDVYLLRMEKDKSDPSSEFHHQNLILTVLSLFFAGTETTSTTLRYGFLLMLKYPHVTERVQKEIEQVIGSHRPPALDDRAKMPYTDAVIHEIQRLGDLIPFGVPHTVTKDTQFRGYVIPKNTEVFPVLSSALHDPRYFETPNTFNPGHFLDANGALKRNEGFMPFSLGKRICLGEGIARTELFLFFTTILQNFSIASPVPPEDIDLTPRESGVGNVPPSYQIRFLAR
EXPERIMENT NOTES: Substrate binding
MEASUREMENT CONDITIONS: Ks, WT; with reductase, no cyt b5; 15 °C
MEASURE NAME: pKd
Give bare numbers, as −log10 of the molar value.

Asked: # get_value(readout='pKd', item= C[C@@H](Cc1ccccc1)N(C)Cc1ccccc1 )
Given back: 3.66

* * *

ASSAYED SYSTEM: wild type (WT) CYP2B4 (Oryctolagus cuniculus, UniProt P00178)
EXPERIMENT NOTES: Substrate binding
MEASUREMENT CONDITIONS: Ks, WT; no reductase, no cyt b5; 15 °C
MEASURE NAME: Kd (µM)
Numbers only, in µM.

Asked: Item C[C@@H](Cc1ccccc1)N(C)Cc1ccccc1 with wild type (WT) CYP2B4 (Oryctolagus cuniculus, UniProt P00178) - Kd?
Given back: 250

* * *

ASSAYED SYSTEM: CYP2B4 F429H (Oryctolagus cuniculus, UniProt P00178, F429H)
EXPERIMENT NOTES: biochemical
MEASURE NAME: Kd (nM)
Numbers only, in nM.

Asked: # get_value(readout='Kd', item= Cc1cc(C(C)(C)C)c(O)c(C(C)(C)C)c1 [butylated hydroxytoluene, 2,6-di-tert-butyl-4-methylphenol] )
Given back: 1820
